- Test system: PPARg:RXRa 270nM:90nM, anti-RXR (NR concentration 270 nM, RXRa partner concentration 90 nM)
- testProtocol: PBM binding z-score (relative to random genomic background probes); higher = stronger binding; sequences stand for … in GC…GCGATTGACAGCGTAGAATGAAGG
# reported PBM binding z-score; entries follow

residueString: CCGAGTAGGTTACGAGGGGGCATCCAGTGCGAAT
readoutName: PBM binding z-score
measValue: 3.34
//
residueString: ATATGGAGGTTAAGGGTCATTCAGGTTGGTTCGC
readoutName: PBM binding z-score
measValue: 8.75

Moving on to the next sequence.
// query Answer with the recorded PBM binding z-score for the sequence listed here: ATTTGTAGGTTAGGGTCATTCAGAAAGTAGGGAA
// result 5.83

* * *

- Tested on: LXRa homodimer (NR concentration 270 nM)
- testProtocol: PBM binding z-score (relative to random genomic background probes); higher = stronger binding; sequences stand for … in GC…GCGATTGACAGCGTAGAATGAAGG
# reported PBM binding z-score; entries follow
Please reply with the number alone, leaving off any unit.

residueString: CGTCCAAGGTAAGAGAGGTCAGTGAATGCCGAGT
PBM binding z-score: 1.66
//
residueString: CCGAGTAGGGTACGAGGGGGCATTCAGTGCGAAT
PBM binding z-score: 0.674
//
residueString: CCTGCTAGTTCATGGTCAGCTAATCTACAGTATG
PBM binding z-score: -0.184

// query Answer with the recorded PBM binding z-score for the sequence listed here: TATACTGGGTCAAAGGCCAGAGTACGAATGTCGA
// result 1.34

// query Answer with the recorded PBM binding z-score for the sequence listed here: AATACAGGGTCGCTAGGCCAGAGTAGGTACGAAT
// result -0.204

// query Answer with the recorded PBM binding z-score for the sequence listed here: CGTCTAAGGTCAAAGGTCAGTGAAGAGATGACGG
// result 4.41

// query Answer with the recorded PBM binding z-score for the sequence listed here: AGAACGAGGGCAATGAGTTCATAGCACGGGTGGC
// result 1.48

// query Answer with the recorded PBM binding z-score for the sequence listed here: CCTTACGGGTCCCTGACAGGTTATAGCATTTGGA
// result 0.128

// query Answer with the recorded PBM binding z-score for the sequence listed here: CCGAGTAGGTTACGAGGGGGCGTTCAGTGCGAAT
// result 0.912

// query Answer with the recorded PBM binding z-score for the sequence listed here: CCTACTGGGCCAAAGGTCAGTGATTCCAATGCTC
// result 1.1

// query Answer with the recorded PBM binding z-score for the sequence listed here: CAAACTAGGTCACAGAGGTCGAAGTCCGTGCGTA
// result 1.74

// query Answer with the recorded PBM binding z-score for the sequence listed here: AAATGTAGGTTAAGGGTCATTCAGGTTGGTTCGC
// result 3.07

* * *

- System: RARb homodimer (NR concentration 270 nM)
- testProtocol: PBM binding z-score (relative to random genomic background probes); higher = stronger binding; sequences stand for … in GC…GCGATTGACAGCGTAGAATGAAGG
readoutName: PBM binding z-score
Please reply with the number alone, leaving off any unit.

Study these solved cases before continuing.
residueString: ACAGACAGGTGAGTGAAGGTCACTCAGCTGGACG
assayTarget: RARb homodimer (NR concentration 270 nM)
PBM binding z-score: 3.64
--
residueString: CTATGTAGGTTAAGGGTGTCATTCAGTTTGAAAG
assayTarget: RARb homodimer (NR concentration 270 nM)
PBM binding z-score: 1.44
--
residueString: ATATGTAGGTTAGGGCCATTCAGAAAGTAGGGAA
assayTarget: RARb homodimer (NR concentration 270 nM)
PBM binding z-score: 1.13
--
residueString: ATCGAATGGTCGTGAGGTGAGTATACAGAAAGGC
assayTarget: RARb homodimer (NR concentration 270 nM)
PBM binding z-score: 0.456
--
residueString: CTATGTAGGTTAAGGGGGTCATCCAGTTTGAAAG
assayTarget: RARb homodimer (NR concentration 270 nM)
PBM binding z-score: 4.02

// query Answer with the recorded PBM binding z-score for the sequence listed here: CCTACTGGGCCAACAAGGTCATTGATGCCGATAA
// result 3.24

// query Answer with the recorded PBM binding z-score for the sequence listed here: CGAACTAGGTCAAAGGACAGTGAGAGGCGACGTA
// result 3.04

// query Answer with the recorded PBM binding z-score for the sequence listed here: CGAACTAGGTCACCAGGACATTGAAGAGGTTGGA
// result 3.54

// query Answer with the recorded PBM binding z-score for the sequence listed here: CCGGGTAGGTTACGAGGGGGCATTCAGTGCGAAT
// result 2.2

// query Answer with the recorded PBM binding z-score for the sequence listed here: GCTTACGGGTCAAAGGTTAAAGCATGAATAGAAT
// result 3.36

// query Answer with the recorded PBM binding z-score for the sequence listed here: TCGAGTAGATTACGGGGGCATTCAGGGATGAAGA
// result 1.26

// query Answer with the recorded PBM binding z-score for the sequence listed here: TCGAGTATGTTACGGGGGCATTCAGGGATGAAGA
// result 1.62

Measured values drawn from the supplement of paper PMC6555819 for this set.
